- TEST SYSTEM: dansyl-CaM (Sigma) (Homo sapiens (Human), UniProt P0DP23 2-149)
- PROTOCOL SUMMARY: fluorescence titration of dansyl-CaM with increasing amounts of peptide
OBSERVABLE: Kd (nM)
Give the value, in units of nM, as a plain number.

Input line: What does the data say about its Kd? Entry: CRKKYRAIGTFMSVYYKSKKGR (also called synthetic DWF1 CaMBD) [synthetic DWF1 CaM-binding peptide (518-539), CRKKYRAIGTFMSVYYKSKKGR]
Output line: 24.2
